System: NRAS Q61R (Homo sapiens, UniProt P01111+P62937, Q61R)
Sequence (P01111 whole entry Q61R): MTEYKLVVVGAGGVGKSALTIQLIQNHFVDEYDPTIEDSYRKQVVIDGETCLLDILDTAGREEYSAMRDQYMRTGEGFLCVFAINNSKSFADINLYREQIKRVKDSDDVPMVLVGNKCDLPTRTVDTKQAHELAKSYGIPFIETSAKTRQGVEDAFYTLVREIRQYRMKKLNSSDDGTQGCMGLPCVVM
Sequence (P62937 whole entry): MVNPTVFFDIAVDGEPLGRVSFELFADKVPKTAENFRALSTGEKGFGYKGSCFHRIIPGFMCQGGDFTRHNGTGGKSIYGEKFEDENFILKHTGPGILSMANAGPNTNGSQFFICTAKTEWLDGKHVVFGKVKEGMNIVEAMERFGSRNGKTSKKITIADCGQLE
Procedure Text: Ras-Raf disruption / FRET / MOA assay (BRAF RBD)
Format: biochemical
pIC50: −log10 of the molar value.
Outcome Measure: pIC50

Task: Look up and report measured pIC50 for this entry: `CCn1c(-c2cccnc2[C@H](C)OC)c2c3cc(ccc31)-c1csc(n1)C[C@H](NC(=O)[C@H](C1CCCC1)N(C)C(=O)CN(C)C(=O)[C@@H]1N[C@@H]1C1CC1)C(=O)N1CCC[C@H](N1)C(=O)OCC(C)(C)C2`
Result: 5.00 to 6.00

Task: Report pIC50, nothing else, for this compound: CCN1C[C@@H]1C(=O)N(C)CC(=O)N(C)[C@H](C(=O)N[C@H]1Cc2cc(O)cc(c2)-c2ccc3c(c2)c(c(-c2cccnc2[C@H](C)OC)n3CC)CC(C)(C)COC(=O)[C@@H]2CCCN(N2)C1=O)C1CCCC1 (stereo partly shown)
Result: 6.00 to 7.00

Task: Note down pIC50 recorded for `CCn1c(-c2cccnc2[C@H](C)OC)c2c3cc(ccc31)-c1cc(O)cc(c1)C[C@H](NC(=O)[C@H](C(C)C)N(C)C(=O)CN(C)C(=O)[C@@H]1N[C@@H]1C(C)C)C(=O)N1CCC[C@H](N1)C(=O)OCC(C)(C)C2`
Result: 7.00 to 8.00

Task: Look up and report measured pIC50 for this entry: `CCn1c(-c2cccnc2[C@H](C)OC)c2c3cc(ccc31)-c1cc(O)cc(c1)C[C@H](NC(=O)[C@H](C1CCCC1)N(C)C(=O)CN(C)C(=O)[C@@H]1N[C@@H]1C1(F)CC1)C(=O)N1CCC[C@H](N1)C(=O)OCC(C)(C)C2`
Result: 6.00 to 7.00

====

Kindly state pIC50 for each of the entries shown.
System: KRAS G12S (Homo sapiens, UniProt P01116+P62937, G12S)
Sequence (P01116 1-169 isoform P01116-2 G12S limits assumed): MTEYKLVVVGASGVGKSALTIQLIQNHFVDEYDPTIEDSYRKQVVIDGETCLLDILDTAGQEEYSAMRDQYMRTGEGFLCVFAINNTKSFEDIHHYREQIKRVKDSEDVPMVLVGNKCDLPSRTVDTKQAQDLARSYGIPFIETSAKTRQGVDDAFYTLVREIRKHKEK
Sequence (P62937 whole entry): as the sequence (P62937 whole entry) above
Procedure Text: Disruption of BRAF RBD interaction with Ras (FRET / MOA assay, with Cyclophilin A)
Format: biochemical
Test Parameters: read-out: KRAS G12S FRET data, IC50
Source text: This protocol may also be executed substituting other Ras proteins or nucleotides. The purpose of this biochemical assay was to measure the ability of test compounds to facilitate ternary complex formation between a nucleotide-loaded K-Ras isoform and Cyclophilin A; the resulting ternary complex disrupts binding to a BRAF^RBD construct, inhibiting K-Ras signaling through a RAF effector. Data is reported as IC50 values. […]
pIC50: −log10 of the molar value.

Task: Supply recorded pIC50 for `CO[C@@H](COC1CN(C(=O)C#CC(C)(C)N(C)C)C1)C(=O)N[C@H]1Cc2cccc(c2)-c2ccc3c(c2)c(c(-c2cccnc2[C@H](C)OC)n3CC(F)(F)F)CC(C)(C)COC(=O)[C@@H]2CCCN(N2)C1=O` here.
Result: < 5.00

Task: Answer with reported pIC50 of CCn1c(-c2cccnc2[C@H](C)OC)c2c3cc(ccc31)-c1cc(O)cc(c1)C[C@H](NS(=O)(=O)CC1OCCC13CNC3)C(=O)N1CCC[C@H](N1)C(=O)OCC(C)(C)C2 (mixture of isomers)
Result: < 5.00

Task: Give recorded pIC50. `C=CC(=O)N1CCCN(C(=O)N(C)[C@H](C(=O)N[C@H]2Cc3cc(O)cc(c3)-c3ccc4c(c3)c(c(-c3ccccc3CCOC)n4CC)CC(C)(C)COC(=O)[C@@H]3CCCN(N3)C2=O)C(C)C)CC1`
Result: 5.00 to 6.00

Task: State its pIC50: CCn1c(-c2cccnc2[C@H](C)OC)c2c3cc(ccc31)-c1csc(n1)C[C@H](NC(=O)[C@H](C(C)C)N(C)C(=O)N1CCN(C(=O)C3(N(C)C)CC3)CC1)C(=O)N1CCC[C@H](N1)C(=O)OCC(C)(C)C2 (atropisomer, axis not shown)
Result: 6.00 to 7.00

Task: Return the recorded pIC50 value; entry: CCn1c(-c2cccnc2[C@H](C)OC)c2c3cc(ccc31)-c1csc(n1)C[C@H](NC(=O)[C@H](C(C)C)N(C)C(=O)N1C[C@@H]3CN(C)C[C@@H]31)C(=O)N1CCC[C@H](N1)C(=O)OCC(C)(C)C2 (atropisomer, axis not shown)
Result: 5.00 to 6.00

Task: Read off the recorded pIC50 for `CCn1c(-c2cccnc2[C@H](C)OC)c2c3cc(ccc31)-c1csc(n1)C[C@H](NC(=O)[C@H](C(C)C)N(C)C(=O)[C@H]1CCN(C(=O)CN)C1)C(=O)N1CCC[C@H](N1)C(=O)OCC(C)(C)C2`
Result: 5.00 to 6.00

Task: Tell me measured pIC50 for `C=CS(=O)(=O)N1CC[C@H](C(=O)N(C)[C@H](C(=O)N[C@H]2Cc3cc(O)cc(c3)-c3ccc4c(c3)c(c(-c3cccnc3COC)n4CC)CC(C)(C)COC(=O)[C@@H]3CCCN(N3)C2=O)C(C)C)C1` please.
Result: 5.00 to 6.00

Task: // Input: CCn1c(-c2cccnc2[C@H](C)OC)c2c3cc(ccc31)-c1csc(n1)C[C@H](NC(=O)[C@H](C(C)C)N(C)C(=O)N1CC(N(C)S(C)(=O)=O)C1)C(=O)N1CCC[C@H](N1)C(=O)OCC(C)(C)C2 (atropisomer, axis not shown) . Output its pIC50 only.
Result: 6.00 to 7.00

====

System: NRAS Q61K (Homo sapiens, UniProt P01111+P62937, Q61K)
Sequence (P01111 whole entry Q61K): as the sequence (P01111 whole entry Q61R) above, with R61K counted along it
Sequence (P62937 whole entry): as the sequence (P62937 whole entry) above
Procedure Text: Disruption of BRAF RBD interaction with Ras (FRET / MOA assay, with Cyclophilin A)
Type: biochemical
Test Parameters: NRAS Q61K; read-out: NRAS Q61K FRET data IC50
pIC50: −log10 of the molar value.
Would you kindly list pIC50 for each of these compounds?

Task: Please report the measured pIC50 for `CCn1c(-c2cccnc2[C@H](C)OC)c2c3cc(ccc31)-c1csc(n1)C[C@H](NC(=O)[C@H](C(C)C)N(C)C(=O)N1CCCC[C@@H](N(C)C)C1)C(=O)N1CCC[C@H](N1)C(=O)OCC(C)(C)C2` tested on NRAS Q61K (Homo sapiens, UniProt P01111+P62937, Q61K).
Result: 6.00 to 7.00

Task: Under NRAS Q61K (Homo sapiens, UniProt P01111+P62937, Q61K): report pIC50 of CCn1c(-c2cccnc2[C@H](C)OC)c2c3cc(ccc31)-c1csc(n1)C[C@H](NC(=O)[C@H](C(C)C)N(C)C(=O)N1CC(OC(F)F)C1)C(=O)N1CCC[C@H](N1)C(=O)OCC(C)(C)C2 (atropisomer, axis not shown) .
Result: 7.00 to 8.00

Task: Under NRAS Q61K (Homo sapiens, UniProt P01111+P62937, Q61K), report pIC50 for CCn1c(-c2cccnc2[C@H](C)OC)c2c3cc(ccc31)-c1csc(n1)C[C@H](NC(=O)[C@H](C(C)C)N(C)C(=O)N1CC3(CC(N4CCOCC4)C3)C1)C(=O)N1CCC[C@H](N1)C(=O)OCC(C)(C)C2 (atropisomer, axis not shown)
Result: 7.00 to 8.00

Task: Tell me pIC50 of CCn1c(-c2cccnc2[C@H](C)OC)c2c3cc(ccc31)-c1csc(n1)C[C@H](NC(=O)[C@H](C(C)C)N(C)C(=O)N1CC([C@@H](C)NC)C1)C(=O)N1CCC[C@H](N1)C(=O)OCC(C)(C)C2 (atropisomer, axis not shown) when tested on NRAS Q61K (Homo sapiens, UniProt P01111+P62937, Q61K).
Result: 7.00 to 8.00

Task: // output pIC50; input `CCn1c(-c2cccnc2[C@H](C)OC)c2c3cc(ccc31)-c1csc(n1)C[C@H](NC(=O)[C@H](C(C)C)N(C)C(=O)N1C[C@@H]3CN(C)CC[C@@H]31)C(=O)N1CCC[C@H](N1)C(=O)OCC(C)(C)C2` ; system NRAS Q61K (Homo sapiens, UniProt P01111+P62937, Q61K)
Result: 6.00 to 7.00

Task: Report value: pIC50, system: NRAS Q61K (Homo sapiens, UniProt P01111+P62937, Q61K), compound: CCn1c(-c2cc(N3CCN(C)CC3)cnc2[C@H](C)OC)c2c3cc(ccc31)-c1cccc(c1)C[C@H](NC(=O)[C@H](C(C)C)N(C)C(=O)[C@@H]1OCC[C@@H]1c1ccccc1)C(=O)N1CCC[C@H](N1)C(=O)OCC(C)(C)C2 (atropisomer, axis not shown)
Result: 6.00 to 7.00

Task: Please report pIC50 with NRAS Q61K (Homo sapiens, UniProt P01111+P62937, Q61K) for item CCn1c(-c2cccnc2[C@H](C)OC)c2c3cc(ccc31)-c1csc(n1)C[C@H](NC(=O)[C@H](F)COC1CN(C(=O)C#CC(C)(C)N(C)C)C1)C(=O)N1CCCC(N1)C(=O)OCC(C)(C)C2 (some centres unmarked) .
Result: < 5.00

Task: For NRAS Q61K (Homo sapiens, UniProt P01111+P62937, Q61K), give pIC50 of the listed compound: `CCn1c(-c2cccnc2[C@H](C)OC)c2c3cc(ccc31)-c1csc(n1)C[C@H](NC(=O)[C@H](C(C)C)N(C)C(=O)N1CC(OC)C1)C(=O)N1CC[C@H](C)[C@H](N1)C(=O)OCC(C)(C)C2`
Result: 6.00 to 7.00

Each recorded value in this set is attributed to patent US20230233569A1.
